Biological target: T1, human galanin (mature, processed form) (human, UniProt P22466 33-62, 125I-labelled in the filtration and immunoprecipitation assays; biotinylated in the IGEN assay and in the BIAcore assay of Table 4)
T1 construct: mature; the assays used the mature peptide; also called biotinylated galanin
T1 peptide (looked up): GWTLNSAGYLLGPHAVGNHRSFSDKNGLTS
Test: BIAcore 3000; IgG captured by goat anti-human IgG Fc on CM5, human galanin peptide flowed; 1:1 Langmuir fit
Description: In terms of ELISA signal, the top 17 Fab fragments consisted of various combinations of three light chains and five heavy chains. For example, the heavy variable region of Fab P1A7 was identical to the heavy variable regions of Fabs R2E9 and R2E8. […] Affinities of these purified antibodies were measured on a BIAcore 3000. […] The binding kinetics was analyzed using the model fit of 1:1 Langmuir+local Rmax+Mass Transfer. […]
METRIC: pKd
The meaning of pKd here: minus log10 of the concentration in molar units.

[[record]]
binder = "humanized 5B4 IgG1: light chain zu5B4 v13 with heavy chain zu5B4 v04 (antibody, V domains shown, Human IgG1 / human kappa, expressed in E5 cells; VH of humanized 5B4-v4, VL of humanized 5B4-v13) VH: EVQLVQSGAEVKKPGATVKISCKVSGFNIEDYYMHWVQQAPGKGLEWMGRIDPENGNTIYDPKFQGRVTITADTSTNTAYLDLSSLRSEDTAVYYCARGYVDWGQGTLVTVSS VL: DVVMTQSPLSLPVTLGQPASISCRSSQSIVHSDGDTYLEWYQQRPGQSPMLLIYKVSNRFSGVPDRFSGSGSGTDFTLKITRVEAEDVGVYYCFQGSHVPYTFGGGTKVEIKR"
metric = "pKd"
experimental_value = 8.70

[[record]]
binder = "humanized 5B4 IgG1: light chain zu5B4 v04 with heavy chain zu5B4 v04 (antibody, V domains shown, also called P1A7 (as IgG1); humanized 5B4-v4) VH: EVQLVQSGAEVKKPGATVKISCKVSGFNIEDYYMHWVQQAPGKGLEWMGRIDPENGNTIYDPKFQGRVTITADTSTNTAYLDLSSLRSEDTAVYYCARGYVDWGQGTLVTVSS VL: DVVMTQSPLSLPVTLGQPASISCRSSQSIVHSDGDTYLEWYLQRPGQSPMLLIYKVSNRFSGVPDRFSGSGSGTDFTLKITRVEAEDVGVYYCFQGSHVPYTFGGGTKVEIKR"
metric = "pKd"
experimental_value = 8.74


q: Please report the measured pKd for humanized 5B4 IgG1: light chain zu5B4 v05 with heavy chain zu5B4 v04 (antibody, V domains shown, Human IgG1 / human kappa, expressed in E5 cells; VH of humanized 5B4-v4, VL of humanized 5B4-v5) VH: EVQLVQSGAEVKKPGATVKISCKVSGFNIEDYYMHWVQQAPGKGLEWMGRIDPENGNTIYDPKFQGRVTITADTSTNTAYLDLSSLRSEDTAVYYCARGYVDWGQGTLVTVSS VL: DVVMTQSPLSLPVTLGQPASISCRSSQSIVHSDGDTYLEWYQQRPGQSPMSLIYKVSNRFSGVPDRFSGSGSGTDFTLKITRVEAEDVGVYYCFQGSHVPYTFGGGTKVEIKR
a: 8.64

// provenance: patent US20050152896A1
